Parameter: RP-LC retention time. Scope: all listed entries.
- Assay Method Text: gradient 5% acetonitrile 3 min, to 50% in 2 min, to 85% in 15 min, held 3 min, 100 µL/min
- Condition Details: column: Zorbax Extend-C18 2.1 x 50 mm; eluents: water / acetonitrile, 0.1% formic acid
Quick note: give the figure in s, leave out the unit.

[in] # input compound: CCC(C)C(=O)N1CCCN(C2=NS(=O)(=O)C(c3ccccc3)=C2C)CC1 (stereo not drawn) ; wanted: its RP-LC retention time
[out] 777

[in] Ok, now `CCn1ccc2cc(S(=O)(=O)N3CCCN(C(=O)Nc4ccccc4)CC3)ccc21`
[out] 868

[in] Moving on to `CC(C)c1ccc(-c2csc(NC(=O)c3ccncc3)n2)cc1`
[out] 989

[in] Now the compound CCNC(=O)C1CCCN(c2nc3ncn(CC(=O)NC4CCCC4)c(=O)c3s2)C1 (stereo not drawn)
[out] 637

[in] Please give the result for `CCOC(=O)C1CCN(c2nc(=O)[nH]c3ccccc23)CC1` too.
[out] 646

---

- Assay Method Text: gradient 5% acetonitrile 3 min, to 50% in 2 min, to 85% in 15 min, held 3 min, 100 µL/min
- Condition Details: column: Zorbax Extend-C18 2.1 x 50 mm; eluents: water / acetonitrile, 0.1% formic acid
Consider the cut-off 700 s. If the recorded RP-LC retention time is strictly smaller, the label is 1; if not, the label is -1.

Please review the following examples before continuing.
>  <Compound>
CCOC(=O)c1cc([N+](=O)[O-])sc1NC(=O)c1ccc(Cl)s1

>  <Qualitative Label>
-1

$$$$
>  <Compound>
Cc1nnc(-c2c(S(=O)(=O)NC3CCCCCC3)c(C)n(C)c2C)o1

>  <Qualitative Label>
-1

$$$$
>  <Compound>
CN1C(=O)c2cccc3c(C(=O)c4ccccc4)ccc(c23)C1=O

>  <Qualitative Label>
-1

$$$$
>  <Compound>
Cc1ccc(C)c(N2CCN(C(=O)c3[nH]c(C)c(S(=O)(=O)N4CCCC4)c3C)CC2)c1

>  <Qualitative Label>
-1

$$$$

[in] In plain terms, does `Cn1cnc2c(=O)oc3ccc(S(=O)(=O)N4CCN(c5ccccn5)CC4)cc3c21` come in under 700 s for RP-LC retention time?
[out] 1

---

Some compounds, each annotated with its measured RP-LC retention time.
- Assay Method Text: gradient 5% acetonitrile 3 min, to 50% in 2 min, to 85% in 15 min, held 3 min, 100 µL/min
- Condition Details: column: Zorbax Extend-C18 2.1 x 50 mm; eluents: water / acetonitrile, 0.1% formic acid

Consider the reported RP-LC retention time for these compounds:
>  <Compound>
COc1ccc(NC(=O)Cn2nc(C(=O)N3CCOCC3)c3ccccc32)cc1

>  <RP-LC retention time>
712 s

$$$$
>  <Compound>
O=C(Nc1c(-c2ccc(F)cc2)nc2ccccn12)c1ccccc1

>  <RP-LC retention time>
638 s

$$$$
>  <Compound>
Cc1noc(C)c1S(=O)(=O)N1CCC(c2noc(-c3cccnc3)n2)C1 (stereo not given)

>  <RP-LC retention time>
796 s

$$$$

[in] What does the record list as RP-LC retention time for `CC(=O)c1ccc(N2CCN(S(=O)(=O)CCCOc3ccc(F)cc3)CC2)cc1` ?
[out] 753 s

[in] Now give it for COc1ccc(C2C(C(=O)NCCCN3CCOCC3)c3cc(OC)c(OC)cc3C(=O)N2C)cc1 (stereo not given) too.
[out] 612 s

[in] And then `CCSc1nnc(-c2nn(C)c3c2CN(C(=O)C2CCCCC2)CC3)n1C` , what is it?
[out] 791 s

[in] // next record `O=C(Cn1nc(S(=O)(=O)c2cccc(F)c2)ccc1=O)N1CCN(c2ccc(F)cc2)CC1`
[out] 882 s

[in] What would you report for COc1ccccc1OC(C)C(=O)N1CCN(c2cc(C)n3cnnc3n2)CC1 (stereo not given) ?
[out] 599 s

[in] Next: `CC1=NS(=O)(=O)N(Cc2ccccc2)C=C1C(=O)OCc1ccccc1`
[out] 1090 s

[in] Please give the result for `COc1cccc(NS(=O)(=O)c2cn(C(C)C)c3ncccc23)c1` too.
[out] 846 s
